# measured target: UniProt:Q9Y7D1
# Sequence (Q9Y7D1 whole entry): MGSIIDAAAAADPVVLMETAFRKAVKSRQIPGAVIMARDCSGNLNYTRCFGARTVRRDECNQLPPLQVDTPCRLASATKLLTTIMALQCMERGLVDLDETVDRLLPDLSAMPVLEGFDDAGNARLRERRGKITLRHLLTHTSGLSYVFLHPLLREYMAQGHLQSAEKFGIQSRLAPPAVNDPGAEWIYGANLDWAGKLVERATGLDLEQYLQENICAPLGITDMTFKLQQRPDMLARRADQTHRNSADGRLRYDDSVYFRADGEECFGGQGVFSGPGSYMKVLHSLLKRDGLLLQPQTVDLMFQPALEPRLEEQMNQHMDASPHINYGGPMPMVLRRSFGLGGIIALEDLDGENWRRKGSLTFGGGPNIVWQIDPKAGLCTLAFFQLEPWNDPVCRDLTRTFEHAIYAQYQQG
# experiment description: LovD acyltransferase mediated acylation: relative activity of thioester acyl donors
# Format: biochemical
# condition parameters: thioester as acyl donor
endpoint name: Relative activity at 24 h (%)

INSERT INTO measurements (smiles_structure, measured_target, observed_result) VALUES
  ('CCC(C)(C)C(=O)SC(C)C', 'UniProt:Q9Y7D1', '+ (+ = 0-1)'),
  ('CCC(C)(C)C(=O)SC', 'UniProt:Q9Y7D1', '+ (+ = 0-1)'),
  ('CCC(C)(C)C(=O)SCC(=O)OC', 'UniProt:Q9Y7D1', '++ (++ = 1-10)'),
  ('CCSC(=O)C(C)(C)CC', 'UniProt:Q9Y7D1', '++ (++ = 1-10)');

Source of measurements: patent US12060592B2
